# assayMethodText: Ocular pharmacokinetics of formulations, Example 20-4
# Type: in vivo, Dutch Belted rabbits
# runParameters: Dutch Belted, rabbit, central choroid, topical, 30 μL per eye of 4 mg/mL suspension; Group 9: 4 mg/mL Salt suspension, PSD 30 μm/XL, TRIS 0.60%, glycerol 2%, HEC 0.3%, Tylox 0.04%, VitK3 1 μM, pH 7, QD; Day 5, 1 hr post dose; read-out: Central Choroid concentration
readoutName: concentration at 1 h

molecule: Cl.NC(=O)c1c(OCc2c(F)cc(Br)cc2F)nsc1NC(=O)NCCCCN1CCCC1 [Compound-I, hydrochloride]
readoutName: concentration at 1 h
result: 224 nM

###

# assayMethodText: 1- to 5-day PK with topical ocular Compound-I formulations (Example 5)
# Assay type: in vivo, Dutch Belted rabbits
# runParameters: Dutch Belted, rabbit, central retina, topical, 30 μL (bilateral), q.d. groups (2,6,8,11,13), 4 days; 24 hr after day 5 morning dose; read-out: Average Concentration Central Retina

compound: Cl.NC(=O)c1c(OCc2c(F)cc(Br)cc2F)nsc1NC(=O)NCCCCN1CCCC1 [Compound-I, hydrochloride]
concentration at 24 h: 24.1 nM

###

# assayMethodText: Ocular pharmacokinetics of formulations, Example 20-4
# Type: in vivo, Dutch Belted rabbits
# runParameters: Dutch Belted, rabbit, cornea, topical, Group 5: 6 mg/mL FB suspension, PSD 30 μm/XL, HPMC 0.08%, glycerol 2.5%, HEC 0.2%, VitK3 1 μM, pH ≈7.5, QD; Day 5, 1 hr post dose; read-out: Cornea concentration

structureNotation: NC(=O)c1c(OCc2c(F)cc(Br)cc2F)nsc1NC(=O)NCCCCN1CCCC1
measurementUnit: µM
concentration at 1 h: 23.8

###

# assayMethodText: Ocular pharmacokinetics of formulations, Example 20-5
# Type: in vivo, Dutch Belted rabbits
# runParameters: Dutch Belted, rabbit, plasma, topical, 4 mg/mL, 30 μL per eye, pH 6, Group 1: 4 mg/mL Ophthalmic Solution, pH 6 (Control), QD for 4 days; 1 hr post dose on Day 5; read-out: Plasma concentration

compound: Cl.NC(=O)c1c(OCc2c(F)cc(Br)cc2F)nsc1NC(=O)NCCCCN1CCCC1 [Compound-I, hydrochloride]
measurementUnit: nM
concentration at 1 h: 4.28

###

# assayMethodText: Ocular pharmacokinetics of formulations, Example 20-4
# Assay type: in vivo, Dutch Belted rabbits
# runParameters: Dutch Belted, rabbit, plasma, topical, 30 μL per eye of 4 mg/mL suspension; Group 7: 4 mg/mL Salt suspension, PSD 30 μm/XL, TRIS 0.60%, glycerol 2%, HEC 0.3%, Tylox 0.04%, VitK3 1 μM, pH 6, QD; Day 5, 1 hr post dose; read-out: Plasma concentration

compound: Cl.NC(=O)c1c(OCc2c(F)cc(Br)cc2F)nsc1NC(=O)NCCCCN1CCCC1 [Compound-I, hydrochloride]
measurementUnit: nM
concentration at 1 h: 5.56

###

# assayMethodText: 1- to 5-day PK with topical ocular Compound-I formulations (Example 5)
# Type: in vivo, Dutch Belted rabbits
# runParameters: Dutch Belted, rabbit, peripheral retina, topical, 30 μL (bilateral), Groups 1, 5: one dose day 1; 24 hr post-dose; read-out: Average Concentration Peripheral Retina

compound: Cl.NC(=O)c1c(OCc2c(F)cc(Br)cc2F)nsc1NC(=O)NCCCCN1CCCC1 [Compound-I, hydrochloride]
measurementUnit: nM
concentration at 24 h: 15.1
